List of Binding of serum 1b to linear peptides of protein N of SARS-CoV Urbani values.
- System: antibodies in sera from SARS patients (sera 1a, 1b, 2, 6, 37, 62, London, SARS-yellow, SARS-green)
- Type: binding, human
Write the number on its own, no unit after it.

Binding of serum 1b to linear peptides of protein N of SARS-CoV Urbani reported for this sequence AADMDDFSRQLQNSM : 0.2

More entries:
Binding of serum 1b to linear peptides of protein N of SARS-CoV Urbani reported for this sequence TALTQHGKEELRFPR : 0.1

Binding of serum 1b to linear peptides of protein N of SARS-CoV Urbani reported for this sequence TVTLLPAADMDDFSR : 0.1

====

List of Binding of serum 37 to looped/cyclic peptides of protein N of SARS-CoV Urbani values.
- Tested on: antibodies in sera from SARS patients (sera 1a, 1b, 2, 6, 37, 62, London, SARS-yellow, SARS-green)
- Type: binding, human
- Set-up: unit not given here
Write the number on its own, no unit after it.

Previously resolved entries follow.
Binding of serum 37 to looped/cyclic peptides of protein N of SARS-CoV Urbani reported for this sequence PNNNAATVLQLPQGT : 1.0

Binding of serum 37 to looped/cyclic peptides of protein N of SARS-CoV Urbani reported for this sequence SASAFFGMSRIGMEV : 0.8

Binding of serum 37 to looped/cyclic peptides of protein N of SARS-CoV Urbani reported for this sequence GLPNNTASWFTALTQ : 0.7

More entries:
Binding of serum 37 to looped/cyclic peptides of protein N of SARS-CoV Urbani reported for this sequence NKEGIVWVATEGALN : 0.6

Binding of serum 37 to looped/cyclic peptides of protein N of SARS-CoV Urbani reported for this sequence RQLQNSMSGASADST : 0.4

Binding of serum 37 to looped/cyclic peptides of protein N of SARS-CoV Urbani reported for this sequence LPNNTASWFTALTQH : 0.8

Binding of serum 37 to looped/cyclic peptides of protein N of SARS-CoV Urbani reported for this sequence RNPNNNAATVLQLPQ : 0.8

Binding of serum 37 to looped/cyclic peptides of protein N of SARS-CoV Urbani reported for this sequence DAYKTFPPTEPKKDK : 0.3

Binding of serum 37 to looped/cyclic peptides of protein N of SARS-CoV Urbani reported for this sequence KDHIGTRNPNNNAAT : 0.5

====

- Tested on: antibodies in sera from SARS patients (sera 1a, 1b, 2, 6, 37, 62, London, SARS-yellow, SARS-green)
- Format: binding, human
List of Binding of serum SARS-green to linear peptides of protein M of SARS-CoV Urbani values.
Write the number on its own, no unit after it.

Binding of serum SARS-green to linear peptides of protein M of SARS-CoV Urbani reported for this sequence YRINWVTGGIAIAMA : 0.3

Binding of serum SARS-green to linear peptides of protein M of SARS-CoV Urbani reported for this sequence WIMLLQFAYSNRNRF : 0.3

Binding of serum SARS-green to linear peptides of protein M of SARS-CoV Urbani reported for this sequence RFLYIIKLVFLWLLW : 0.6

Binding of serum SARS-green to linear peptides of protein M of SARS-CoV Urbani reported for this sequence IKLVFLWLLWPVTLA : 0.3

Binding of serum SARS-green to linear peptides of protein M of SARS-CoV Urbani reported for this sequence ARTRSMWSFNPETNI : 0.7

More entries:
Binding of serum SARS-green to linear peptides of protein M of SARS-CoV Urbani reported for this sequence WSFNPETNILLNVPL : 1.5

Binding of serum SARS-green to linear peptides of protein M of SARS-CoV Urbani reported for this sequence IKDLPKEITVATSRT : 0.2

Binding of serum SARS-green to linear peptides of protein M of SARS-CoV Urbani reported for this sequence CIVGLMWLSYFVASF : 0.3

Binding of serum SARS-green to linear peptides of protein M of SARS-CoV Urbani reported for this sequence LWLLWPVTLACFVLA : 0.4

====

- Test system: antibodies in sera from SARS patients (sera 1a, 1b, 2, 6, 37, 62, London, SARS-yellow, SARS-green)
- Format: binding, human
- Design: unit not given here
propertyName: Binding of serum 6 to linear peptides of protein M of SARS-CoV Urbani
Write the number on its own, no unit after it.

Binding of serum 6 to linear peptides of protein M of SARS-CoV Urbani reported for this sequence LFLAWIMLLQFAYSN : 0.3

Binding of serum 6 to linear peptides of protein M of SARS-CoV Urbani reported for this sequence NLVIGFLFLAWIMLL : 0.3

====

- System: antibodies in sera from SARS patients (sera 1a, 1b, 2, 6, 37, 62, London, SARS-yellow, SARS-green)
- Format: binding, human
List of Binding of serum 62 to linear peptides of protein X4 of SARS-CoV Urbani values.
Write the number on its own, no unit after it.

Previously resolved entries follow.
Binding of serum 62 to linear peptides of protein X4 of SARS-CoV Urbani reported for this sequence VFTSCELYHYQECVR : 0.8

Binding of serum 62 to linear peptides of protein X4 of SARS-CoV Urbani reported for this sequence QEEVQQELYSPLFLI : 0.8

Binding of serum 62 to linear peptides of protein X4 of SARS-CoV Urbani reported for this sequence FLIVAALVFLILCFT : 0.7

Binding of serum 62 to linear peptides of protein X4 of SARS-CoV Urbani reported for this sequence RHTYQLRARSVSPKL : 0.8

Binding of serum 62 to linear peptides of protein X4 of SARS-CoV Urbani reported for this sequence GTRHTYQLRARSVSP : 0.8

Binding of serum 62 to linear peptides of protein X4 of SARS-CoV Urbani reported for this sequence KLFIRQEEVQQELYS : 0.8

Binding of serum 62 to linear peptides of protein X4 of SARS-CoV Urbani reported for this sequence LTCTSTHFAFACADG : 0.8

Binding of serum 62 to linear peptides of protein X4 of SARS-CoV Urbani reported for this sequence CTSTHFAFACADGTR : 0.8

Binding of serum 62 to linear peptides of protein X4 of SARS-CoV Urbani reported for this sequence ADGTRHTYQLRARSV : 0.7

Binding of serum 62 to linear peptides of protein X4 of SARS-CoV Urbani reported for this sequence LIVAALVFLILCFTI : 0.6

More entries:
Binding of serum 62 to linear peptides of protein X4 of SARS-CoV Urbani reported for this sequence PCPSGTYEGNSPFHP : 0.7

Binding of serum 62 to linear peptides of protein X4 of SARS-CoV Urbani reported for this sequence ALTCTSTHFAFACAD : 0.9

Binding of serum 62 to linear peptides of protein X4 of SARS-CoV Urbani reported for this sequence VSPKLFIRQEEVQQE : 0.7

Binding of serum 62 to linear peptides of protein X4 of SARS-CoV Urbani reported for this sequence FAFACADGTRHTYQL : 0.7

Binding of serum 62 to linear peptides of protein X4 of SARS-CoV Urbani reported for this sequence HFAFACADGTRHTYQ : 0.6

====

- Tested on: antibodies in sera from SARS patients (sera 1a, 1b, 2, 6, 37, 62, London, SARS-yellow, SARS-green)
- Type: binding, human
- Design: unit not given here
propertyName: Binding of serum 37 to linear peptides of protein X2
Write the number on its own, no unit after it.

Previously resolved entries follow.
Binding of serum 37 to linear peptides of protein X2 reported for this sequence KYTQSTALQELLIQQ : 0.6

Binding of serum 37 to linear peptides of protein X2 reported for this sequence KTHRMCKYTQSTALQ : 0.7

Binding of serum 37 to linear peptides of protein X2 reported for this sequence LSLHKLLQTLVLKML : 0.4

Binding of serum 37 to linear peptides of protein X2 reported for this sequence HKLLQTLVLKMLHSS : 0.5

Binding of serum 37 to linear peptides of protein X2 reported for this sequence SPKFTTSLSLHKLLQ : 0.5

Binding of serum 37 to linear peptides of protein X2 reported for this sequence QWIQFMMSRRRLLAC : 0.6

Binding of serum 37 to linear peptides of protein X2 reported for this sequence HSSSLTSLLKTHRMC : 0.5

Binding of serum 37 to linear peptides of protein X2 reported for this sequence LLKVTAFQHQNSKKT : 0.5

Turning to the following sequence.
Binding of serum 37 to linear peptides of protein X2 reported for this sequence TSLLKTHRMCKYTQS : 0.7

====

- Test system: antibodies in sera from SARS patients (sera 1a, 1b, 2, 6, 37, 62, London, SARS-yellow, SARS-green)
- Type: binding, human
- Design: unit not given here
propertyName: Binding of serum 6 to linear peptide (PEPSCAN-ELISA)
Write the number on its own, no unit after it.

Previously resolved entries follow.
Binding of serum 6 to linear peptide (PEPSCAN-ELISA) reported for this sequence GFYAEGSRGGSQASS : 0.4

Binding of serum 6 to linear peptide (PEPSCAN-ELISA) reported for this sequence RGGSQASSRSSSRSR : 0.4

Binding of serum 6 to linear peptide (PEPSCAN-ELISA) reported for this sequence GGETALALLLLDRLN : 0.2

More entries:
Binding of serum 6 to linear peptide (PEPSCAN-ELISA) reported for this sequence STPGSSRGNSPARMA : 0.3

Binding of serum 6 to linear peptide (PEPSCAN-ELISA) reported for this sequence LDRLNQLESKVSGKG : 0.3

Binding of serum 6 to linear peptide (PEPSCAN-ELISA) reported for this sequence FYAEGSRGGSQASSR : 0.3

Binding of serum 6 to linear peptide (PEPSCAN-ELISA) reported for this sequence SRGNSRNSTPGSSRG : 0.2
